# System: IL-23 induced STAT3 in HEK-Blue™ IL-23 cells
# ASSAY_PROTOCOL: IL-23 induced STAT3 QUANTI-Blue reporter assay in HEK-Blue IL-23 cells
# Format: cell-based
# CONDITIONS_USED: HEK-Blue IL-23 cells, IL-23 0.1 ng/mL, SEAP levels; class symbols; read-out: IL23 reporter assay (IC50 nM)
Hi there, I'd appreciate the recorded IC50 for every entry that follows.

Specify measured IC50 for CNc1cc(Nc2cccc3c2OCCC3)nn2c(C(=O)NC(C)c3ncco3)cnc12 (single isomer, unassigned) [Compound 22a] .
≥ 1000 nM

Specify measured IC50 for [2H]C([2H])([2H])Nc1cc(Nc2cccn(C3CC4(CCCO4)C3)c2=O)nn2c(C(=O)N[C@@H]3C[C@H]4CCO[C@H]43)cnc12 (single isomer, unassigned) [Compound 98b] .
10 to 100 nM

Specify measured IC50 for [2H]C([2H])([2H])Nc1cc(Nc2cccn(C3CCCC4(COC4)C3)c2=O)nn2c(C(=O)N[C@@H]3C[C@@H]3F)cnc12 (single isomer, unassigned) [Compound 75a] .
100 to 1000 nM

Specify measured IC50 for [2H]C([2H])([2H])Nc1cc(Nc2cccn(-c3ccccn3)c2=O)nn2c(C(=O)N[C@@H]3C[C@@H]3F)cnc12 .
< 10 nM

Specify measured IC50 for CNc1cc(Nc2cccn(C3CC4CCOC43)c2=O)nn2c(C(=O)N[C@@H]3C[C@@H]3F)cnc12 (single isomer, unassigned) [Compound 105b] .
10 to 100 nM

Specify measured IC50 for CNc1cc(Nc2cccn(C3CC4CCOC43)c2=O)nn2c(C(=O)N[C@@H]3C[C@@H]3F)cnc12 (single isomer, unassigned) [Compound 105c] .
10 to 100 nM

Specify measured IC50 for CNc1cc(Nc2cccn(CC3CCCO3)c2=O)nn2c(C(=O)N[C@@H]3C[C@H]4CCO[C@H]43)cnc12 (single isomer, unassigned) [Compound 62b] .
10 to 100 nM

----------
# TARGET_OR_TEST_SYSTEM: N-terminal His-tagged TYK2 pseudokinase domain (Homo sapiens)
# Construct: the N-terminal His-tagged TYK2 pseudokinase domain; His (N); purchased Pharmaron
# Sequence (P29597 589-875 limits assumed): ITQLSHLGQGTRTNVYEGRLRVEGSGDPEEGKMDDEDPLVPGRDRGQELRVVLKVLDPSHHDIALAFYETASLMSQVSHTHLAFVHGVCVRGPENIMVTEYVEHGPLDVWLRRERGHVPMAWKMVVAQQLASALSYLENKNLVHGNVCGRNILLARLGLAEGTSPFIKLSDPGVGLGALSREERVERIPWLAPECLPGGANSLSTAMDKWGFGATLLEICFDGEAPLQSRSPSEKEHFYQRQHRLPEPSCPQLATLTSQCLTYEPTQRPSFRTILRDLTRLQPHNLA
# ASSAY_PROTOCOL: TYK2 JH2 domain SPA binding assay
# CONDITIONS_USED: displacement of H3 probe (20 nM), 30 min room temperature; class symbols
REPORTED_PROPERTY: IC50

Specify measured IC50 for [2H]C([2H])([2H])Nc1cc(Nc2cccn(C3CC4(CCOC4)C3)c2=O)nn2c(C(=O)N[C@@H]3C[C@H]4CCO[C@H]43)cnc12 (single isomer, unassigned) [Compound 96a] .
10 to 100 nM

Specify measured IC50 for [2H]C([2H])([2H])Nc1cc(Nc2cccn([C@H]3C[C@H](OC(F)(F)F)C3)c2=O)nn2c(C(=O)N[C@@H]3C[C@H]4CCO[C@H]43)cnc12 .
10 to 100 nM

Specify measured IC50 for CNc1cc(Nc2cccn(C3C[C@H]4CC[C@@H](C3)O4)c2=O)nc2c(C(=O)N[C@@H]3C[C@H]4CCO[C@H]43)cnn12 (stereo partly shown) .
10 to 100 nM

Specify measured IC50 for [2H]C([2H])([2H])Nc1cc(Nc2cccn([C@H]3CC[C@@H](OC([2H])([2H])[2H])CC3)c2=O)nn2c(C(=O)N[C@@H]3C[C@H]4CCO[C@H]43)cnc12 .
10 to 100 nM

Specify measured IC50 for [2H]c1onc2c1CCC2NC(=O)c1cnn2c(NC)cc(Nc3cccn(-c4ccccn4)c3=O)nc12 (racemic) .
10 to 100 nM

Specify measured IC50 for CNc1cc(Nc2cccc3c2OCCC3)nc2c(C(=O)NC(C)c3ncco3)cnn12 (single isomer, unassigned) [Compound 23b] .
< 10 nM

Specify measured IC50 for CNc1cc(Nc2cccn(C3CCOCC3)c2=O)nn2c(C(=O)N[C@@H]3C[C@H]4CCO[C@H]43)cnc12 .
10 to 100 nM

Specify measured IC50 for CNc1cc(Nc2cccn(-c3ccccn3)c2=O)nn2c(C(=O)NC3CCc4conc43)cnc12 (stereo not shown) .
< 10 nM

Specify measured IC50 for CNc1cc(Nc2cccn(-c3ccccc3F)c2=O)nn2c(C(=O)N[C@@H]3C[C@H]4CCO[C@H]43)cnc12 .
10 to 100 nM

Specify measured IC50 for [2H]C([2H])([2H])OC1(C)CC(n2cccc(Nc3cc(NC)c4ncc(C(=O)N[C@@H]5C[C@H]6CCO[C@H]65)n4n3)c2=O)C1 (single isomer, unassigned) [Compound 93b] .
10 to 100 nM

Specify measured IC50 for CNc1cc(Nc2cccc(C)n2)nc2c(C(=O)NC3CCn4ncnc43)cnn12 (racemic) .
10 to 100 nM

Specify measured IC50 for CNc1cc(Nc2cccn(-c3ccccn3)c2=O)nc2c(C(=O)N[C@@H]3C[C@H]4CCO[C@H]43)cnn12 (racemic) .
10 to 100 nM

Specify measured IC50 for CNc1cc(Nc2cccn([C@H]3C[C@@H](OC)C3)c2=O)nn2c(C(=O)N[C@@H]3C[C@H]4CCO[C@H]43)cnc12 .
10 to 100 nM

----------
# TARGET_OR_TEST_SYSTEM: N-terminal His-tagged TYK2 pseudokinase domain (Homo sapiens)
# Construct: the N-terminal His-tagged TYK2 pseudokinase domain; His (N); purchased Pharmaron
# ASSAY_PROTOCOL: TYK2 JH2 domain SPA binding assay
# CONDITIONS_USED: displacement of H3 probe (20 nM), 30 min room temperature; class symbols
# Description: TYK2 JH2 Domain Binding Assay After incubating at room temperature for 30 min, the inhibition was calculated by the displacement of [3H] 3 binding as determined by scintillation counting. Dose-response curves were generated to determine the concentration required to inhibit H3 probe binding by […] (IC50).
Counter-ions that a name gives are not always drawn.
REPORTED_PROPERTY: IC50

Specify measured IC50 for [2H]C([2H])([2H])Nc1cc(Nc2cccn(C3CC4(CCOC4)C3)c2=O)nn2c(C(=O)N[C@@H]3C[C@H]4CCO[C@H]43)cnc12 (single isomer, unassigned) [Compound 96b] .
10 to 100 nM

Specify measured IC50 for [2H]C([2H])([2H])Nc1cc(Nc2cccn(-c3ccn(C([2H])([2H])[2H])n3)c2=O)nn2c(C(=O)N[C@@H]3C[C@@H]3F)cnc12 .
10 to 100 nM

Specify measured IC50 for CNc1cc(Nc2cccn(C3CCC4(CC3)COC4)c2=O)nn2c(C(=O)N[C@@H]3C[C@@H]3F)cnc12 .
10 to 100 nM

Specify measured IC50 for CNc1cc(Nc2cccn(-c3cc(C)n(C)n3)c2=O)nn2c(C(=O)N[C@@H]3C[C@H]4CCO[C@H]43)cnc12 .
10 to 100 nM

Specify measured IC50 for CNc1cc(Nc2cccn(C3C[C@H]4CC[C@@H](C3)O4)c2=O)nn2c(C(=O)N[C@@H]3C[C@@H]3F)cnc12 (single isomer, unassigned) [Compound 79a] .
10 to 100 nM

Specify measured IC50 for CNc1cc(Nc2cccn(C3C[C@H]4CC[C@@H](C3)O4)c2=O)nn2c(C(=O)N[C@@H]3C[C@@H]3F)cnc12 (single isomer, unassigned) [Compound 79b] .
10 to 100 nM

Specify measured IC50 for CNc1cc(Nc2cccn(CC3CCCO3)c2=O)nn2c(C(=O)N[C@@H]3C[C@H]4CCO[C@H]43)cnc12 (single isomer, unassigned) [Compound 62b] .
10 to 100 nM

Specify measured IC50 for [2H]C([2H])([2H])Nc1cc(Nc2cccn(C3CC4OCCC43)c2=O)nn2c(C(=O)N[C@@H]3C[C@@H]3F)cnc12 (single isomer, unassigned) [Compound 101a] .
10 to 100 nM

Specify measured IC50 for [2H]C([2H])([2H])Nc1cc(Nc2cccn(C3CC4(CCCO4)C3)c2=O)nn2c(C(=O)N[C@@H]3C[C@@H]3F)cnc12 (single isomer, unassigned) [Compound 104b] .
10 to 100 nM

Specify measured IC50 for CNc1cc(Nc2cccn(-c3ccccn3)c2=O)nn2c(C(=O)NC3CCC4CCOC43)cnc12 (racemic) [Compound 10b] .
> 1000 nM

Specify measured IC50 for [2H]C([2H])([2H])Nc1cc(Nc2cccn([C@H]3C[C@H](OC([2H])([2H])[2H])C3)c2=O)nn2c(C(=O)N[C@@H]3C[C@H]4CCO[C@H]43)cnc12 .
10 to 100 nM

Specify measured IC50 for [2H]C([2H])([2H])Nc1cc(Nc2cccn(-c3ccn(C)n3)c2=O)nn2c(C(=O)N[C@@H]3C[C@H]4CCO[C@H]43)cnc12 .
< 10 nM

Specify measured IC50 for [2H]C([2H])([2H])Nc1cc(Nc2cccn([C@H]3C[C@@H](OC([2H])([2H])[2H])C3)c2=O)nn2c(C(=O)N[C@@H]3C[C@H]4CCO[C@H]43)cnc12 .
10 to 100 nM

Specify measured IC50 for [2H]C([2H])([2H])Nc1cc(Nc2cccn([C@H]3C[C@H](OC([2H])([2H])[2H])C3)c2=O)nc2c(C(=O)N[C@@H]3C[C@@H]3F)cnn12 .
10 to 100 nM

Specify measured IC50 for CNc1cc(Nc2cccn(-c3ncccc3F)c2=O)nn2c(C(=O)N[C@@H]3C[C@H]4CCO[C@H]43)cnc12 .
10 to 100 nM

Specify measured IC50 for [2H]C([2H])([2H])Nc1cc(Nc2cccn([C@@H]3C[C@H]4CCO[C@H]43)c2=O)nn2c(C(=O)N[C@@H]3C[C@@H]3F)cnc12 .
< 10 nM

Specify measured IC50 for [2H]C([2H])([2H])O[C@H]1C[C@@H](n2cccc(Nc3cc(NC)c4ncc(C(=O)N[C@@H]5C[C@H]6CCO[C@H]65)n4n3)c2=O)C1 .
10 to 100 nM

Specify measured IC50 for [2H]C([2H])([2H])Nc1cc(Nc2cccn(C3CC4(CCOC4)C3)c2=O)nc2c(C(=O)N[C@@H]3C[C@H]4CCO[C@H]43)cnn12 (single isomer, unassigned) [Compound 97a] .
10 to 100 nM

Specify measured IC50 for CNc1cc(Nc2cccn(C3CC4CCOC43)c2=O)nn2c(C(=O)N[C@@H]3C[C@@H]3F)cnc12 (single isomer, unassigned) [Compound 105a] .
100 to 1000 nM

Specify measured IC50 for [2H]C([2H])([2H])O[C@H]1CC[C@@H](n2cccc(Nc3cc(NC)c4ncc(C(=O)N[C@@H]5C[C@@H]5F)n4n3)c2=O)CC1 [Compound 15, hydrochloride] .
10 to 100 nM

Specify measured IC50 for [2H]C([2H])([2H])Nc1cc(Nc2cccn([C@@H]3C[C@H]4CCO[C@H]43)c2=O)nn2c(C(=O)N[C@@H]3C[C@H]4CCO[C@H]43)cnc12 .
< 10 nM

Specify measured IC50 for [2H]C([2H])([2H])Nc1cc(Nc2cccn([C@H]3CC[C@H](OC([2H])([2H])[2H])CC3)c2=O)nn2c(C(=O)N[C@@H]3C[C@@H]3F)cnc12 .
10 to 100 nM

This collection of values is drawn from patent US20240335443A1.
